B1: glmS ribozyme (parent)
chain: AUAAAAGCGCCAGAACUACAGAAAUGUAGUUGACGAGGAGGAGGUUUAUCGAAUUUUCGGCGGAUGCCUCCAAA

Variants of: B1
measurementDescription: self-cleavage kobs at 2500 uM GlcN6P; higher = faster cleavage; RNA array
experimentalConditions: with glucosamine-6-phosphate
This sample holds only a part of the variants without activity.
measuredParameter: self-cleavage kobs at 2500 uM GlcN6P

The measured self-cleavage kobs at 2500 uM GlcN6P associated with G35A C50A reads < 1e-05 s⁻¹

The measured self-cleavage kobs at 2500 uM GlcN6P associated with A12C C16U C50U reads 3.9e-05 s⁻¹

The measured self-cleavage kobs at 2500 uM GlcN6P associated with C10G G43U A64G reads < 1e-05 s⁻¹

The measured self-cleavage kobs at 2500 uM GlcN6P associated with C10U A39U G59A C70U reads < 1e-05 s⁻¹

The measured self-cleavage kobs at 2500 uM GlcN6P associated with A12U A33U U49A C68A reads < 1e-05 s⁻¹

The measured self-cleavage kobs at 2500 uM GlcN6P associated with U30C G35U G51A A53U U56C reads < 1e-05 s⁻¹

The measured self-cleavage kobs at 2500 uM GlcN6P associated with G32A G37C reads < 1e-05 s⁻¹

The measured self-cleavage kobs at 2500 uM GlcN6P associated with C34U G40U C71U reads < 1e-05 s⁻¹

The measured self-cleavage kobs at 2500 uM GlcN6P associated with A36G C61G C67G U69G C71A reads < 1e-05 s⁻¹

The measured self-cleavage kobs at 2500 uM GlcN6P associated with C10G A36C reads < 1e-05 s⁻¹

The measured self-cleavage kobs at 2500 uM GlcN6P associated with G13U U55G C67A reads 8.05e-05 s⁻¹

The measured self-cleavage kobs at 2500 uM GlcN6P associated with A14U G29A A52C C61U C68A C71G reads 0.00014 s⁻¹

The measured self-cleavage kobs at 2500 uM GlcN6P associated with G29C G40U U46C C67A reads < 1e-05 s⁻¹

The measured self-cleavage kobs at 2500 uM GlcN6P associated with G29A A48U U69A reads < 1e-05 s⁻¹

The measured self-cleavage kobs at 2500 uM GlcN6P associated with U30C C58U C67G C71A reads 0.000197 s⁻¹

The measured self-cleavage kobs at 2500 uM GlcN6P associated with A14C G29U A39C U46G U47A reads < 1e-05 s⁻¹

The measured self-cleavage kobs at 2500 uM GlcN6P associated with G13C U45C U46C C68A C70G reads < 1e-05 s⁻¹

The measured self-cleavage kobs at 2500 uM GlcN6P associated with C34G G40C A48G U49G C71U reads < 1e-05 s⁻¹

The measured self-cleavage kobs at 2500 uM GlcN6P associated with C8G A14G C34G reads < 1e-05 s⁻¹

The measured self-cleavage kobs at 2500 uM GlcN6P associated with A33C C50G reads 0.000218 s⁻¹

The measured self-cleavage kobs at 2500 uM GlcN6P associated with A6G G29C C70G reads < 1e-05 s⁻¹

The measured self-cleavage kobs at 2500 uM GlcN6P associated with C11U A14G G43A reads < 1e-05 s⁻¹

Source of measurements: the supplement of paper PMC7125110
